The values you see were collected from the supplement of paper PMC12455559.

Assignment: determine reported melting temperature for the given sequences.
assay: melting temperature (DSF); higher = more thermostable

What melting temperature value was documented for this sequence, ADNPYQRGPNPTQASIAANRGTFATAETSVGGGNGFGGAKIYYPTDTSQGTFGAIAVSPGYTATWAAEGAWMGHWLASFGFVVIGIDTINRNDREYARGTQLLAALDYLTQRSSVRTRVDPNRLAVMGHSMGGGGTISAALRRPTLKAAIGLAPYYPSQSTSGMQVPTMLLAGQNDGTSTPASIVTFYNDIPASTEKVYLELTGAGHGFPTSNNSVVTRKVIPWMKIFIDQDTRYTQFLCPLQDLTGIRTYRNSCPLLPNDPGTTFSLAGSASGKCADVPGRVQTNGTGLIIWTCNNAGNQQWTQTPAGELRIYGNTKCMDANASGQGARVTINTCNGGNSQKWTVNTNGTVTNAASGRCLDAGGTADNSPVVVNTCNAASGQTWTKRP [DP047] ?
49.9 C

What melting temperature value was documented for this sequence, LNPYQRGPNPTDAILEASSGPYATSSISVPSIVSGFGGGRIYYPTTTADGTFGGIAISPGFTATWSSLSWLGPRLASHGFVVIGIETNTIYDQPTSRGQQLLAALDYLVNTSSVRTRVDSSRLAVAGHSMGGGGTLWAANSRPSLQAAIPLAPWNTDKSWSGVRVPTLIVGGQSDTVAPVATHSIPFYTSIPAASEKAYLELRSASHFFPQTVNTTVAVSMVSWLKRYVDDDTRYDPWLCPGPSGLSVSDYRDTCPA [TEP178] ?
52 C

What melting temperature value was documented for this sequence, ADNPYQRGPDPTPQSISAPTGPFATASVTVPRQGNFGGGVIYYPTDTSQGTFGAVAISPGLNGTWPGIAWLGPRLSSQGFVVFGIDTLGLSDSTASRGSQLLAALDYLTQTSSVRTRVDSSRLAVAGHSMGGGGAFEAALRRPALKAAIPNAPFFPGSASNVRVPTLITAMQNDSLVGQNRNAYNGIPAGVEKAYVELAGAGHNQIGQPTTAIARNWIPWLKIFVDSDARYHQFLCPTTDMSGLSQYLNTCPLISTTPPTSSPSAQPTTPGPTGPPPGGACAATYRTVNSWSDGYQGEMTVQAGSSAINGWTVRWTMSGGQTISQVWNGTLVAGSGAAAVRNVAYNGSLAAGASTTFGFISSGTPSATSITCGSP [ESM081] ?
68.2 C

What melting temperature value was documented for this sequence, ATTSYQRGPNPTEQSVRAANGPFAYSQFAIPDAEATGFGEGTIYYPNNTSVGTFGGVVIAPGFNADQNSTVWLGKRLASHGFVAVTITTHELNDQPYERGKQILAALDYLTGQSPAFVRSRLDPARLAAVGHSMGGGGTLFAAAQRPSLKAIVPLAPWALAKNWSNVQVPTMILSGAQDASAPPAEHAEKFYASLTSAPEKAYAKLDVNHVRFAWEHPLIGKLVVSWLKRFVDEDTRYTQFLCPTATGAVLLEYRATCPLG [DP026] ?
66.1 C

What melting temperature value was documented for this sequence, QDNSQGRYRPEGRQIGVAAGREFGERIYEVRTYETNPGIAEFADVMVFYPLTLSFDRPNGAIAFSPGFRAAADNYEWWGPALASLGYNVFILNTNEPTDDLDARADALAALVDFIKAENANPDSPVANKIDEEKIALMGHSMGGGAALAAADRLGDAVGAVIPLALYCCNPGGSFEGDYGSLSAAALVIASAEDTVAPPEAHARLLYDSLGSENKIYMEFAAGDHMFPANGGPELATMGRFTLAFLKAYLDGVAGLEQHVTSPSDEYAERFSTYLAP [TEP035] ?
52.3 C
